Sourced from the supplement of paper PMC6555819

Test system: PXR homodimer (NR concentration 270 nM)
Assay: PBM binding z-score (relative to random genomic background probes); higher = stronger binding; sequences stand for … in GC…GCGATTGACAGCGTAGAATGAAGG
Below, each entry is listed alongside its reported PBM binding z-score.
Could you keep your reply to the number by itself?

TTACCAAGGTGAAAGATCGTTGATGCACGCCTTG ... -0.296
GGAACGAGGGCGTTCGAGTTGATAGCATGGCGAT ... 0.811
CCTGCTAGGTCAATGGTCAGCTACAGCAGCTCGC ... -0.299

Now look at this one.
Inquiry: Recorded PBM binding z-score of "ACTAGTTGGTCAGCTGAGGTCAGACACAATTCGG" , please.
Reply text: 0.813

====

System: PPARg:RXRa 90nM:30nM, anti-RXR (NR concentration 90 nM, RXRa partner concentration 30 nM)
Test: PBM binding z-score (relative to random genomic background probes); higher = stronger binding; sequences stand for … in GC…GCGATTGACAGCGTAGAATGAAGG
Below, each entry is listed alongside its reported PBM binding z-score.
Could you keep your reply to the number by itself?

// known answers, use as guide
ATCTCTAGGTAAAGTCCAGTGAAAGATCGATAGA ... 0.165
GGAACGTGGGCAAAGTTGATAGCATCTGTCGACG ... 2.7
TATACAGCGTCAAAGGCCAGAGTACGAATGTCGA ... 1.13
CCTCGGAGGACAACAGGAGGCCAGAGCTGCCAGA ... -0.807
AGAACGAGGGCACTCTGAGTTGATAGCAGAGTAG ... 0.277

Now look at this one.
Inquiry: Recorded PBM binding z-score of "GCGACTGGGGCATCAGCAGGTTAACATAACTTAA" , please.
Reply text: 0.609

====

Tested on: PPARg:RXRa 270nM:90nM, anti-RXR (NR concentration 270 nM, RXRa partner concentration 90 nM)
Experiment: PBM binding z-score (relative to random genomic background probes); higher = stronger binding; sequences stand for … in GC…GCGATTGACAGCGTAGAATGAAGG
ASSAY_METRIC: PBM binding z-score
Could you keep your reply to the number by itself?

// known answers, use as guide
GCTGCTAGGTCAGGGTGGTCAGCTAACGGGTACG ... 1.95
CGTCCCAGGTCAATGCTAGGTCAGTGAAAGCATT ... 3.05

Now look at this one.
Inquiry: Recorded PBM binding z-score of "AGAATGAGGTTATACGTAGATCACGGAAGAAAGT" , please.
Reply text: 2.03

====

System: PPARg:RXRa 30nM:10nM, anti-RXR (NR concentration 30 nM, RXRa partner concentration 10 nM)
Assay: PBM binding z-score (relative to random genomic background probes); higher = stronger binding; sequences stand for … in GC…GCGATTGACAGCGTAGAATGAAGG
ASSAY_METRIC: PBM binding z-score
Could you keep your reply to the number by itself?

ATCTCTAGGTAAGACTCGGTTCAGTGAAGAACGC ... 0.0672
ACTCGGAGGACAAAGGTCAGAGTTACGCCAGTGA ... 5.57
AATAGCAGGCCAAGTTTGGGTCACTCAAACAAAG ... -0.511
ATCTAAAGGTCGTGAGGTGAGTATACAGAAAGGC ... 2.02
ATCTCTAGGCAAAGTTCAGTGAAAGATCGATAGA ... 1.93
TTACCAAGGTGAGAGGTCGTTGATGCACGCCTTG ... 4.84

Inquiry: Recorded PBM binding z-score of "CGTCCAAGGTCAATGCTAGGTCAGTGTAAGCATT" , please.
Reply text: 1.23

====

Tested on: RARa:RXR (NR concentration 270 nM, RXRa partner concentration 90 nM)
Test: PBM binding z-score (relative to random genomic background probes); higher = stronger binding; sequences stand for … in GC…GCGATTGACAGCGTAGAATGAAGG
ASSAY_METRIC: PBM binding z-score
Could you keep your reply to the number by itself?

// known answers, use as guide
CAAACTAGCTCACGAAAGGTCAAAGTCGAATGAC ... 6.04
TCATATAGGTAAAAGGTGAAAATCGGTGTGGTAA ... 3.05
CGAACTAGGTTATTGACAGGACAGTGAATAGTAA ... 0.554
TAATATAGGTAATACAGGTGAAAGTCGGCATCTA ... 0.476
AGAACGAGGGCACTGAGTTGATAGCACGGGTGGC ... 0.453

Inquiry: Recorded PBM binding z-score of "CCTAGCAGGCCAGGGTCACTCGAGCATTTCGCTT" , please.
Reply text: 3.1

Inquiry: Recorded PBM binding z-score of "CGACCAAGGTGAACAAGGTCGTTGATTACTATTC" , please.
Reply text: 1.99

Inquiry: Recorded PBM binding z-score of "AGAGTGAGGTTAAGATCAGGGAAACAGAATACAT" , please.
Reply text: 2.02

Inquiry: Recorded PBM binding z-score of "AGTCAAAGTTCACTAGGTAATGTAAGATTCAGCT" , please.
Reply text: 3.26

Inquiry: Recorded PBM binding z-score of "CGTCAAAGTTCAAGATAACGTAACAGAAAGCAGC" , please.
Reply text: 3.35

====

Below, each entry is listed alongside its reported PBM binding z-score.
Test system: PPARg homodimer (NR concentration 180 nM)
Experiment: PBM binding z-score (relative to random genomic background probes); higher = stronger binding; sequences stand for … in GC…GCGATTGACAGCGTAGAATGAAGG
Could you keep your reply to the number by itself?

// known answers, use as guide
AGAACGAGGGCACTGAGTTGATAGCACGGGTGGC ... 0.00559
GCATATAGGTAATACAAGGTGATAGTCCGATTGT ... 0.142
TCTAGTTTGTCAAAGGTCACACACTCGAAATGCG ... 4.88

Inquiry: Give recorded PBM binding z-score with PPARg homodimer (NR concentration 180 nM) for the following sequence: "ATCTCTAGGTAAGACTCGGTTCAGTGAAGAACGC"
Reply text: 0.702

Inquiry: Give recorded PBM binding z-score with PPARg homodimer (NR concentration 180 nM) for the following sequence: "TAGCCTAGGTCATTGGGCCAATATAGTACGCATC"
Reply text: 1.58

Inquiry: Give recorded PBM binding z-score with PPARg homodimer (NR concentration 180 nM) for the following sequence: "CCTAGCAGGCCTATCTGGGTCACTCAAGGCTTGA"
Reply text: 0.541

Inquiry: Give recorded PBM binding z-score with PPARg homodimer (NR concentration 180 nM) for the following sequence: "ATCTCTAGGTAACAAGTTCAGGGAAAGAGAGGAC"
Reply text: 1.61

Inquiry: Give recorded PBM binding z-score with PPARg homodimer (NR concentration 180 nM) for the following sequence: "GCAGACAGGTGAAACGTAGGTAACTCAGGGTGGC"
Reply text: -0.211

Inquiry: Give recorded PBM binding z-score with PPARg homodimer (NR concentration 180 nM) for the following sequence: "ATCGAAAGGTCGTGGGGTGAGTATACAGAAAGGC"
Reply text: 2.39

Inquiry: Give recorded PBM binding z-score with PPARg homodimer (NR concentration 180 nM) for the following sequence: "AGAACGAGGGCAATGAGTTGATAGTACGGGTGGC"
Reply text: 0.221

Inquiry: Give recorded PBM binding z-score with PPARg homodimer (NR concentration 180 nM) for the following sequence: "CTTCGGAGGACAGAAGGTCAGAGCTGTCCGCTTT"
Reply text: 1.51

====

System: THRa homodimer (NR concentration 90 nM)
Assay: PBM binding z-score (relative to random genomic background probes); higher = stronger binding; sequences stand for … in GC…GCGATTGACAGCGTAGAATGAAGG
ASSAY_METRIC: PBM binding z-score
Could you keep your reply to the number by itself?

Inquiry: Give recorded PBM binding z-score with THRa homodimer (NR concentration 90 nM) for the following sequence: "CCTGCTAGGTCATGGTCCGCTAATCTACAGTATG"
Reply text: 1.1

====

Test system: PPARg:RXRa 90nM:30nM, anti-RXR (NR concentration 90 nM, RXRa partner concentration 30 nM)
Assay: PBM binding z-score (relative to random genomic background probes); higher = stronger binding; sequences stand for … in GC…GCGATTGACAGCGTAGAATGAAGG
Think of 3 as a floor: if PBM binding z-score stands on it or above, it is condition met; beneath it, condition not met.

A selection of reference data follows.
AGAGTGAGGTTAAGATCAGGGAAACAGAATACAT ... condition not met
TCATATAGGTACTACAGGTGAAAGTCGGCATCTA ... condition not met
TCATATAGGTAAAGGTGAAACTCGAACGATATGA ... condition met
ATCGAAAGGTCGGGAGGTGAGTATACAGAAAGGC ... condition not met
CATCCAAGGTCAGCAGGTCAGTGAAAGCGACGTG ... condition met

Inquiry: Would you say "TGAATGAAGTTATAAGATCAGGGAACGTTGCAAA" shows PBM binding z-score at minimum 3?
Reply text: condition not met

Inquiry: Would you say "TCGAGTAGGTTAGGGTCATTCAGAATGGCGTCGA" shows PBM binding z-score at minimum 3?
Reply text: condition met

Inquiry: Would you say "TCGAGTAGGTTACGAATGGGGCATTCAGCTTTCT" shows PBM binding z-score at minimum 3?
Reply text: condition not met

Inquiry: Would you say "TCGAGTAGCTTAGTCGGGGCATTCAGCCAACATA" shows PBM binding z-score at minimum 3?
Reply text: condition not met

Inquiry: Would you say "CTAGACAGGTGAGAAGGTAACTCAGCCTCGATTA" shows PBM binding z-score at minimum 3?
Reply text: condition not met

Inquiry: Would you say "CGAACTAGGTCAGGGACAGTGAATCTCCGCACGC" shows PBM binding z-score at minimum 3?
Reply text: condition met

Inquiry: Would you say "TGAATGAGGGTAAAGATCAGGGAACGTGGCGTCG" shows PBM binding z-score at minimum 3?
Reply text: condition met

Inquiry: Would you say "ATCGAAAGGTCGCGGTGAGTATAGAGAAAGGGAA" shows PBM binding z-score at minimum 3?
Reply text: condition met

Inquiry: Would you say "GCTCGGAGGACAAGGTCTGAGCTTTGTCCGTAGA" shows PBM binding z-score at minimum 3?
Reply text: condition not met

Inquiry: Would you say "GCTTACGGGTCAAAGCTTATAGCATGAATAGAAT" shows PBM binding z-score at minimum 3?
Reply text: condition met

Inquiry: Would you say "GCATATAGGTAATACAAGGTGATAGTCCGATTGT" shows PBM binding z-score at minimum 3?
Reply text: condition not met

Inquiry: Would you say "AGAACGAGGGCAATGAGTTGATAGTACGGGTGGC" shows PBM binding z-score at minimum 3?
Reply text: condition not met

Inquiry: Would you say "CTTACTGGGCCATTCAGAGGTCATTGATCATATG" shows PBM binding z-score at minimum 3?
Reply text: condition met

Inquiry: Would you say "CAAACTAGGTGACGAAAGGTCAAAGTCGAATGAC" shows PBM binding z-score at minimum 3?
Reply text: condition met

Inquiry: Would you say "CCGAGTAGGTTATGGGTCATTCAGGCAACGGTGA" shows PBM binding z-score at minimum 3?
Reply text: condition met

Inquiry: Would you say "GCTAGCAGGCCATTTGGGTTACTCAATGACGGGC" shows PBM binding z-score at minimum 3?
Reply text: condition not met

Inquiry: Would you say "AGAATCAGGTTATACGTAGATCAGGGAAGAAAGT" shows PBM binding z-score at minimum 3?
Reply text: condition not met
